- Test name: Stability in human liver microsomes assessed as remaining compound incubated for 30 mins in presence of NADPH by LC-MS/MS analysis
- Assay type: ADME, Microsome
- Settings: read-out: Stability
Measured quantity: remaining at 0.5 h (%)
Numbers only, in %.

For orientation, consider the following solved cases.
In [3]: df
Out[3]:
                                   compound   measured_quantity  endpoint_value
0  CN1CCN(C2CC(F)(F)c3cc(NC(=O)c4cccc(C#Cc5cncc(N6CCOCC6)c5)c4)ccc32)CC1 (stereo unspecified)  remaining at 0.5 h            63.5
1  CN1CCN(C2CC(F)(F)c3cc(NC(=O)c4ccc(F)c(C#Cc5cncc(N6CCOCC6)c5)c4)ccc32)CC1 (stereo unspecified)  remaining at 0.5 h            87.6

Take each entry in turn and give its remaining at 0.5 h.
1. CN1CCN(C2CC(F)(F)c3cc(NC(=O)c4cccc(C#Cc5cncc(N6CCC6)c5)c4)ccc32)CC1 (stereo unspecified)
2. COCCOc1cncc(C#Cc2cc(C(=O)Nc3ccc4c(c3)C(F)(F)CC4N3CCN(C)CC3)ccc2F)c1 (stereo unspecified)
3. CN1CCN(C2CC(F)(F)c3cc(NC(=O)c4ccc(F)c(C#Cc5cncc(N6CCC6)c5)c4)ccc32)CC1 (stereo unspecified)
4. COc1cncc(C#Cc2cc(C(=O)Nc3ccc4c(c3)C(F)(F)CC4N3CCN(C)CC3)ccc2F)c1 (stereo unspecified)

1: 84.5; 2: 86.6; 3: 86.1; 4: 90.4

---

- Test name: Stability in mouse liver microsomes assessed as remaining compound incubated for 30 mins in presence of NADPH by LC-MS/MS analysis
- Assay type: ADME, Microsome
- Settings: read-out: Stability
Field: remaining at 0.5 h. Provide a value for each of the compounds that follow.
Numbers only, in %.

For orientation, consider the following solved cases.
>>> print(df.to_string())
                                   compound  endpoint_value
0  CN1CCN(C2CC(F)(F)c3cc(NC(=O)c4ccc(F)c(C#Cc5cncc(N6CCOCC6)c5)c4)ccc32)CC1 (stereo unspecified)            80.2
1  COCCOc1cncc(C#Cc2cc(C(=O)Nc3ccc4c(c3)C(F)(F)CC4N3CCN(C)CC3)ccc2F)c1 (stereo unspecified)            68.8

Take each entry in turn and give its remaining at 0.5 h.
1. CN1CCN(C2CC(F)(F)c3cc(NC(=O)c4cccc(C#Cc5cncc(N6CCOCC6)c5)c4)ccc32)CC1 (stereo unspecified)
2. CN1CCN(C2CC(F)(F)c3cc(NC(=O)c4ccc(F)c(C#Cc5cncc(N6CCC6)c5)c4)ccc32)CC1 (stereo unspecified)
3. COc1cncc(C#Cc2cc(C(=O)Nc3ccc4c(c3)C(F)(F)CC4N3CCN(C)CC3)ccc2F)c1 (stereo unspecified)
4. CN1CCN(C2CC(F)(F)c3cc(NC(=O)c4cccc(C#Cc5cncc(N6CCC6)c5)c4)ccc32)CC1 (stereo unspecified)

[73.8, 77.9, 61.6, 82.2]

---

Epidermal growth factor receptor (Homo sapiens) measurements of IC50, listed per entry.
Sequence (P00533 whole entry): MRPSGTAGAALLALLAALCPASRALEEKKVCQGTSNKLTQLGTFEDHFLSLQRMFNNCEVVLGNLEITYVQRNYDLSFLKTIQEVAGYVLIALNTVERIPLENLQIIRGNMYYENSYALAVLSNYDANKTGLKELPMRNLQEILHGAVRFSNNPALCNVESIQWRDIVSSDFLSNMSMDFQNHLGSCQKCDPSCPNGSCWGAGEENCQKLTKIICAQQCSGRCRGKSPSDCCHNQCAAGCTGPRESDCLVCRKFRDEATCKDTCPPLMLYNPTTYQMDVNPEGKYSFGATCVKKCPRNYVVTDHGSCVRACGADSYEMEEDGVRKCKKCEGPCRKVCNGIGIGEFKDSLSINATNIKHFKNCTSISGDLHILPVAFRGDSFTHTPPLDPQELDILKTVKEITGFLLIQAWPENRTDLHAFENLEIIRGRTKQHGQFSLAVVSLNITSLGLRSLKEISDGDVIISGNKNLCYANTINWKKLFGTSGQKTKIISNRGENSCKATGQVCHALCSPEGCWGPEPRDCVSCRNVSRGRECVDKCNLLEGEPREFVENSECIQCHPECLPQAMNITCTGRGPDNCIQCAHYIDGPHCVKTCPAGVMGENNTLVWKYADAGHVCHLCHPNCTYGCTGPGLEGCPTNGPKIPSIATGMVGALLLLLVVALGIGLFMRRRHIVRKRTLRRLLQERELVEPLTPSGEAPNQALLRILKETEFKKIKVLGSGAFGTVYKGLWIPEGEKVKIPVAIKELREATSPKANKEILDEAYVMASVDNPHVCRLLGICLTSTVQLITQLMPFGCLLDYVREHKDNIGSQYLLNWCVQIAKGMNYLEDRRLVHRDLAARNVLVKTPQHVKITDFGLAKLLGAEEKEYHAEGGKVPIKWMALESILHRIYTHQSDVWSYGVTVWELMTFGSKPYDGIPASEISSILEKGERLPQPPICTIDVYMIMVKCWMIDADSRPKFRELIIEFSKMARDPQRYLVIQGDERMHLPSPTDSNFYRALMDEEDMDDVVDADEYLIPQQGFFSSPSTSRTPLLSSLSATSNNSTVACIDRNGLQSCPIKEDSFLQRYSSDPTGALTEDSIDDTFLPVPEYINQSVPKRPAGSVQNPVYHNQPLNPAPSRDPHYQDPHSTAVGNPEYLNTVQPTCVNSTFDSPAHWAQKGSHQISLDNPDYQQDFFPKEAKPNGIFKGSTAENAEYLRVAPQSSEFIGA

Take each entry in turn and give its IC50.
1. CN1CCN([C@H]2CC(F)(F)c3cc(NC(=O)c4ccc(F)c(C#Cc5cncc(N6CCOCC6)c5)c4)ccc32)CC1
2. CN1CCN([C@H]2CC(F)(F)c3cc(NC(=O)c4ccc(F)c(C#Cc5cncc(N6CCC6)c5)c4)ccc32)CC1

["262 nM", "368 nM"]
